Test: Cellular Toxicity (caspase-3) N2a (AID 665);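 note: compound exposure lasted 16 h at 37 °C before readout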
Conditions: N2a cells, luminescence, normalized: DMSO 0%, 10 µM staurosporine 100%; series mostly up to 92.2 µM
Active and inactive are the calls of the source. Calls come from the whole dose curve; as a rule, active = well fitted activation curve with a large enough effect; inconclusive = small, poorly fitted or top-dose-only effect; inactive = flat fitted curve, though single readings scatter.
property-name: outcome

{"compound": "COc1ccc(C(=O)c2ccccc2)c(O)c1", "outcome": "inactive"}
{"compound": "CCOc1ccccc1C(N)=O", "outcome": "inactive"}
{"compound": "COc1cc([C@H]2Oc3cc([C@H]4Oc5cc(O)cc(O)c5C(=O)[C@@H]4O)ccc3O[C@@H]2CO)ccc1O", "outcome": "inactive"}
{"compound": "Oc1c(Cl)cc(Cl)c(Cl)c1Cc1c(O)c(Cl)cc(Cl)c1Cl", "outcome": "inactive"}
{"compound": "Oc1ccc(Cl)cc1Cc1cc(Cl)ccc1O", "outcome": "inactive"}
{"compound": "CCCN(CCC)S(=O)(=O)c1ccc(C(=O)O)cc1", "outcome": "inactive"}

Field: next compound
The compound listed as CCCCC(CC)COC(=O)c1ccc(N(C)C)cc1 (configuration not stated) shows outcome equal to inactive

* * *

// max response lookup, one value per entry
Test: qHTS assay for small molecule agonists of the antioxidant response element (ARE) signaling pathway measured by Nrf2-dependant transcriptional activity - cell viability counter screen (AID 720653); note: % is set by controls: 0 for no effect and ±100 for the full control effect
Conditions: ARE-bla HepG2 viability, CellTiter-Glo ATP luminescence, 16 h; active compounds read low
Records with an inconclusive call do not appear.
# output: bare number, implied unit %

Here is how some molecules turned out for max response.
{"structure-as-smiles": "CCCCCCCCOc1ccc(C(=O)c2ccccc2)c(O)c1", "unit-of-measurement": "%", "max response": -12.5}
{"structure-as-smiles": "OC[C@H]1O[C@@H]2O[C@H]3[C@H](O)[C@@H](O)[C@@H](O[C@H]4[C@H](O)[C@@H](O)[C@@H](O[C@H]5[C@H](O)[C@@H](O)[C@@H](O[C@H]6[C@H](O)[C@@H](O)[C@@H](O[C@H]7[C@H](O)[C@@H](O)[C@@H](O[C@H]8[C@H](O)[C@@H](O)[C@@H](O[C@H]1[C@H](O)[C@H]2O)O[C@@H]8CO)O[C@@H]7CO)O[C@@H]6CO)O[C@@H]5CO)O[C@@H]4CO)O[C@@H]3CO", "unit-of-measurement": "%", "max response": -6.08}
{"structure-as-smiles": "O=C(O)c1ccc(S(=O)(=O)N(Cl)Cl)cc1", "unit-of-measurement": "%", "max response": 7.82}
{"structure-as-smiles": "CC(C)(C)CC(C)(C)c1ccc(O)c(-n2nc3ccccc3n2)c1", "unit-of-measurement": "%", "max response": 4.4}

Field: next molecule
The molecule listed as CCCCOC(=O)CC(CC(=O)OCCCC)(OC(C)=O)C(=O)OCCCC shows max response equal to -1.72

* * *

System: W2
Assay: qHTS profiling for inhibitors of Plasmodium falciparum proliferation (AID 504749); note: nearly all actives have a fitted effect of over 60% in size
Conditions: P. falciparum in erythrocytes, SYBR Green DNA, 72 h; series mostly up to 28.7 µM
Results filed as inconclusive are left out. The source made the active and inactive calls. Calls come from the whole dose curve; as a rule, active = well fitted inhibition curve with a large enough effect; inconclusive = small, poorly fitted or top-dose-only effect; inactive = flat fitted curve, though single readings scatter.
The reply should name one outcome from active, inactive

Study these solved cases before continuing.
{"molecule": "CCCCCCCCOc1ccc(C(=O)c2ccccc2)c(O)c1", "classification": "inactive"}
{"molecule": "CC(=O)Nc1ccc(CC(=O)O)cc1", "classification": "inactive"}
{"molecule": "Nc1ccc(C(=O)NCC(=O)O)cc1", "classification": "inactive"}
{"molecule": "CC(C)(Cc1c[nH]c2ccccc12)NCC(O)COc1ccccc1C#N (configuration not stated)", "classification": "active"}
{"molecule": "CC(C)[N+](C)(C)CC(O)COc1cccc2ccccc12 (configuration not stated)", "classification": "inactive"}

Recorded call for COc1ccc(CN(CCN(C)C)c2ncccn2)cc1 ?
active

Recorded call for c1ccc(CC2=NCCN2)cc1 ?
inactive

Recorded call for CCCCCCCCCCCCCC[N+](C)(C)Cc1ccccc1 ?
active

Recorded call for CCCCCCCCCCCCCCCC(=O)O ?
inactive

Recorded call for CCCCC(CC)COC(=O)/C=C/c1ccc(OC)cc1 (configuration not stated) ?
inactive

Recorded call for CC(=O)NO ?
inactive

Recorded call for O=c1[nH]c(=O)n([C@H]2C[C@H](O)[C@@H](CO)O2)cc1F ?
inactive

Recorded call for Nc1nc(N)c(-c2ccccc2)s1 ?
inactive

Recorded call for Oc1ccccc1C=NCc1ccccc1 ?
inactive

Recorded call for CN1CCC(OC(c2ccccc2)c2ccccc2)CC1 ?
active

Recorded call for NC(N)=NN=C(/C=C/c1ccc([N+](=O)[O-])o1)/C=C/c1ccc([N+](=O)[O-])o1 ?
active
